molecular target: dCK (Homo sapiens, UniProt P27707); construct: endogenous in cells; host or cells: CEM cells; experiment: Inhibition of [3H]-deoxycytidine (dCyd) uptake by CEM cells; assay type: cell-based; conditions: [3H]dC uptake, 0 mg/mL BSA, read-out: dCKi-IC-50
Sequence (P27707 whole entry): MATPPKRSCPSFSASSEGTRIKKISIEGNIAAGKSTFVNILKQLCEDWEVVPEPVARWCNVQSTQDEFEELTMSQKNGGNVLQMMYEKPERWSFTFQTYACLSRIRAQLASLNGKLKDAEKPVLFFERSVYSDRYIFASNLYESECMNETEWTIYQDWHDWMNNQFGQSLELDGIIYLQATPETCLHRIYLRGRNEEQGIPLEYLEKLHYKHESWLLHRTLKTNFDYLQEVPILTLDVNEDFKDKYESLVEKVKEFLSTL
experimental.endpoint: pIC50
// pIC50: -log10(molar conc.)

Measured pIC50 of COc1ccc(-c2nc([C@@H](C)Sc3nc(N)cc(N)n3)c(C)s2)cc1OCCN1CCOCC1 [Compound 9R] : 8.39
